- TARGET_DESC: Serine/threonine-protein kinase B-raf (Homo sapiens, UniProt P15056, V600E)
- Sequence (P15056 2-766 V600E limits assumed): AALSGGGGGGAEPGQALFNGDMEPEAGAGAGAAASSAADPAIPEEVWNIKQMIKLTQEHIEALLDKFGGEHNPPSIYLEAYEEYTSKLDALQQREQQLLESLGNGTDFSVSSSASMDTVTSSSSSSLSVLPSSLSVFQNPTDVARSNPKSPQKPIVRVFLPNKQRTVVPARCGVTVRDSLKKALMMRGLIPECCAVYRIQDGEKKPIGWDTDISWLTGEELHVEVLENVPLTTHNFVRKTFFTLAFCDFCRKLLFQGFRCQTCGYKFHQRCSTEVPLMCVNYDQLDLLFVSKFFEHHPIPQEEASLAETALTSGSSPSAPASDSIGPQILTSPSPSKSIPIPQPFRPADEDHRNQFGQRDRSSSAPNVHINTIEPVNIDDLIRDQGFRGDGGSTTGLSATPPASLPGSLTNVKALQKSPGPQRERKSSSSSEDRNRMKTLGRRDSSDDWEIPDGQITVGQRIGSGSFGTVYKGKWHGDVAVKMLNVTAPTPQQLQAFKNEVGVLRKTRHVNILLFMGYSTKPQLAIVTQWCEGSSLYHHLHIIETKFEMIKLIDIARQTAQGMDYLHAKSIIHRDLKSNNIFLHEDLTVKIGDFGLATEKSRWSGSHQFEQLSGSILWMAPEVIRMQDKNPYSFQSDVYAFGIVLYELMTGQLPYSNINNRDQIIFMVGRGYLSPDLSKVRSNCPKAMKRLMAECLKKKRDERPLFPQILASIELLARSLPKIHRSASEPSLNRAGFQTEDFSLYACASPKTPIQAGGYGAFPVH
- MEASUREMENT_PROTOCOL: Inhibition of BRAF V599E mutant (unknown origin) after 40 mins by scintillation counting analysis
PROPERTY_LABEL: pIC50
// field semantics: pIC50 = negative decimal log of concentration (mol/L)

Data request: What value of pIC50 has been reported for the following compound? Cc1ccc(NC(=O)c2cc(N3CCN(C)CC3)cc(C(F)(F)F)c2)cc1NC(=O)c1cnoc1C
Data returned: 6.18

---

- TARGET_DESC: RAF proto-oncogene serine/threonine-protein kinase (Homo sapiens, UniProt P04049)
- Sequence (P04049 whole entry): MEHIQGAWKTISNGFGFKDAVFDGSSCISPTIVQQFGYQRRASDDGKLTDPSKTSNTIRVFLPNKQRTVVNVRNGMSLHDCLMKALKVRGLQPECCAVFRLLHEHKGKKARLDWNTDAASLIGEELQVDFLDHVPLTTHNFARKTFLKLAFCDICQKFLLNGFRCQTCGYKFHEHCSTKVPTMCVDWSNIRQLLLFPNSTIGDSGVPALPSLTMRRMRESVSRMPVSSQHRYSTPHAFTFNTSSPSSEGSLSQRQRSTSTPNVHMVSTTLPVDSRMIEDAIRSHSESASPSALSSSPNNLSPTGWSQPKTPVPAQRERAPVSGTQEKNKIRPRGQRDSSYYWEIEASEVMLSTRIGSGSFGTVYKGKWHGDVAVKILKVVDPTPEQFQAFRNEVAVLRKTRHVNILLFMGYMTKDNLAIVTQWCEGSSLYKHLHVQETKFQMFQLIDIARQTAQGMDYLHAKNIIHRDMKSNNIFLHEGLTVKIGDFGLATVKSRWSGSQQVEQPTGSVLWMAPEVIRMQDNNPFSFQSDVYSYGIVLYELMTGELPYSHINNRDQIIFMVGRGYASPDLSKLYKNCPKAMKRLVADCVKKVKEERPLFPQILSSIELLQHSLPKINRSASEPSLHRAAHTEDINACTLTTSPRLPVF
- MEASUREMENT_PROTOCOL: Inhibition of C-Raf (unknown origin) after 40 mins by scintillation counting analysis
PROPERTY_LABEL: pIC50
// field semantics: pIC50 = negative decimal log of concentration (mol/L)

Data request: What value of pIC50 has been reported for the following compound? Cc1ccc(NC(=O)c2cc(N3CCN(C)CC3)cc(C(F)(F)F)c2)cc1NC(=O)c1cnoc1C
Data returned: 7.35
